# test: Study 200207: repeat dose 20-50 mg QD for 8 days, SDD, healthy subjects
# Format: in vivo, human
# measurement_conditions: human, plasma, oral; without boosting, repeat dosing; read-out: t½ (converted)
measured_parameter: half-life

So what's the measured half-life for this one? CC(C)C1=C2[C@H]3CC[C@@H]4[C@@]5(C)CC[C@H](OC(=O)CC(C)(C)C(=O)O)C(C)(C)[C@@H]5CC[C@@]4(C)[C@]3(C)CC[C@@]2([C@@H](O)CN(CCN(C)C)Cc2ccc(Cl)cc2)CC1=O [GSK2838232] ~15 h

* * *

# test: Study HMI116787: single ascending dose, food effect and RTV boosting, SDD PiB, healthy subjects
# Type: in vivo, human
# measurement_conditions: human, plasma, oral; single 50 mg SDD PiB, fasted, without ritonavir, Study HMI116787; geometric mean (95% CI); read-out: t½ (converted)
measured_parameter: half-life
Please answer in the form of a number followed by its unit of measurement.

Any idea what its half-life is? The molecule is CC(C)C1=C2[C@H]3CC[C@@H]4[C@@]5(C)CC[C@H](OC(=O)CC(C)(C)C(=O)O)C(C)(C)[C@@H]5CC[C@@]4(C)[C@]3(C)CC[C@@]2([C@@H](O)CN(CCN(C)C)Cc2ccc(Cl)cc2)CC1=O 17.4 h

* * *

# test: Study 204953 Part 1A: single doses 50-250 mg API PiB with RTV, healthy subjects
# Type: in vivo, human
# measurement_conditions: human, plasma, oral, single 250 mg API PiB, fasted, with ritonavir (2 days predosing), median (range), read-out: C24
measured_parameter: concentration at 24 h (ng/mL)
Kindly provide the numeric value in ng/mL only, without the unit symbol.

Any idea what its concentration at 24 h is? The compound is CC(C)C1=C2[C@H]3CC[C@@H]4[C@@]5(C)CC[C@H](OC(=O)CC(C)(C)C(=O)O)C(C)(C)[C@@H]5CC[C@@]4(C)[C@]3(C)CC[C@@]2([C@@H](O)CN(CCN(C)C)Cc2ccc(Cl)cc2)CC1=O [GSK2838232] 24

* * *

# test: Study 204953 Part 2: repeat dosing for 11 days with RTV QD or 200 mg BID unboosted
# Type: in vivo, human
# measurement_conditions: human, plasma, oral, 200 mg, Study Day 11, 200 mg bid without RTV (capsules), Study 204953; geometric mean (95% CI)
measured_parameter: Cmax (ng/mL)
The reply should contain only the number, in ng/mL.

Give its Cmax value. Item: CC(C)C1=C2[C@H]3CC[C@@H]4[C@@]5(C)CC[C@H](OC(=O)CC(C)(C)C(=O)O)C(C)(C)[C@@H]5CC[C@@]4(C)[C@]3(C)CC[C@@]2([C@@H](O)CN(CCN(C)C)Cc2ccc(Cl)cc2)CC1=O 96.1

* * *

# test: Study 204953 Part 2: repeat dosing for 11 days with RTV QD or 200 mg BID unboosted
# Assay type: in vivo, human
# measurement_conditions: human, plasma, oral, 20 mg, Study day 1, 20 mg QD + RTV (PiB), τ = 24 hours, Study 204953; geometric mean (95% CI); read-out: AUC(0‐τ)
measured_parameter: AUC (ng·h/mL)
Please reply with the bare figure in ng·h/mL and do not write the unit itself.

Any idea what AUC was measured for CC(C)C1=C2[C@H]3CC[C@@H]4[C@@]5(C)CC[C@H](OC(=O)CC(C)(C)C(=O)O)C(C)(C)[C@@H]5CC[C@@]4(C)[C@]3(C)CC[C@@]2([C@@H](O)CN(CCN(C)C)Cc2ccc(Cl)cc2)CC1=O ? 175

* * *

# test: Study 204953 Part 2: repeat dosing for 11 days with RTV QD or 200 mg BID unboosted
# Format: in vivo, human
# measurement_conditions: human, plasma, oral, Study Day 11, 20 mg QD + RTV (PiB), τ = 24 hours, Study 204953; geometric mean (95% CI); read-out: AUC(0‐τ)
measured_parameter: AUC (ng·h/mL)
Quick note: give the figure in ng·h/mL, leave out the unit.

Fill in: AUC of CC(C)C1=C2[C@H]3CC[C@@H]4[C@@]5(C)CC[C@H](OC(=O)CC(C)(C)C(=O)O)C(C)(C)[C@@H]5CC[C@@]4(C)[C@]3(C)CC[C@@]2([C@@H](O)CN(CCN(C)C)Cc2ccc(Cl)cc2)CC1=O [GSK2838232] is ___ 449

* * *

# test: Study 200912: single dose 100-200 mg, SDD versus nonmicronized API PiB, healthy subjects
# Type: in vivo, human
# measurement_conditions: human, plasma, oral, 100 mg, single 100 mg SDD PiB, fasted, without ritonavir, Study 200912; geometric mean (95% CI); read-out: t½ (converted)
measured_parameter: half-life (h)
Report only the number, with the unit h understood.

Bench note: what half-life did CC(C)C1=C2[C@H]3CC[C@@H]4[C@@]5(C)CC[C@H](OC(=O)CC(C)(C)C(=O)O)C(C)(C)[C@@H]5CC[C@@]4(C)[C@]3(C)CC[C@@]2([C@@H](O)CN(CCN(C)C)Cc2ccc(Cl)cc2)CC1=O show? 16.9

* * *

# test: Study HMI116787: single ascending dose, food effect and RTV boosting, SDD PiB, healthy subjects
# Assay type: in vivo, human
# measurement_conditions: human, plasma, oral; single 100 mg SDD PiB, fasted, without ritonavir, Study HMI116787; geometric mean (95% CI); read-out: AUC(0‐∞)
measured_parameter: AUC (ng·h/mL)
Numbers only here, please. The scale is ng·h/mL.

Any idea what its AUC is? The compound is CC(C)C1=C2[C@H]3CC[C@@H]4[C@@]5(C)CC[C@H](OC(=O)CC(C)(C)C(=O)O)C(C)(C)[C@@H]5CC[C@@]4(C)[C@]3(C)CC[C@@]2([C@@H](O)CN(CCN(C)C)Cc2ccc(Cl)cc2)CC1=O [GSK2838232] 385

* * *

# test: Study HMI116787: single ascending dose, food effect and RTV boosting, SDD PiB, healthy subjects
# Assay type: in vivo, human
# measurement_conditions: human, plasma, oral; single 5 mg SDD PiB, fasted, without ritonavir, Study HMI116787; geometric mean (95% CI)
measured_parameter: Cmax (ng/mL)
// return numeric value only (unit: ng/mL, not printed)

Tell me the measured Cmax of CC(C)C1=C2[C@H]3CC[C@@H]4[C@@]5(C)CC[C@H](OC(=O)CC(C)(C)C(=O)O)C(C)(C)[C@@H]5CC[C@@]4(C)[C@]3(C)CC[C@@]2([C@@H](O)CN(CCN(C)C)Cc2ccc(Cl)cc2)CC1=O , please. 1.52

* * *

# test: Study 200912: single dose 100-200 mg, SDD versus nonmicronized API PiB, healthy subjects
# Format: in vivo, human
# measurement_conditions: human, plasma, oral, 100 mg, single 100 mg API PiB, fasted, without ritonavir, Study 200912; median (range); read-out: C24
# Method: This was a double‐blind, randomized, placebo‐controlled, single‐dose escalation study to investigate the safety, tolerability, and PK of higher single doses of GSK2838232 (Part A) and to evaluate the relative bioavailability of the SDD and crystalline Active Pharmaceutical Ingredient (API) of GSK2838232 (Part B) in healthy subjects dosed as PiB. […] Extracts were analyzed using HPLC (Shimadzu, Nexera, 30 series) and tandem mass spectrometry detection (HPLC‐MS/MS). […]
measured_parameter: concentration at 24 h (ng/mL)
# value in ng/mL; strip the unit string

Sample CC(C)C1=C2[C@H]3CC[C@@H]4[C@@]5(C)CC[C@H](OC(=O)CC(C)(C)C(=O)O)C(C)(C)[C@@H]5CC[C@@]4(C)[C@]3(C)CC[C@@]2([C@@H](O)CN(CCN(C)C)Cc2ccc(Cl)cc2)CC1=O [GSK2838232] — what was its concentration at 24 h? 2.02

* * *

# test: Study 204953 Part 2: repeat dosing for 11 days with RTV QD or 200 mg BID unboosted
# Format: in vivo, human
# measurement_conditions: human, plasma, oral, 200 mg, Study day 1, 200 mg bid without RTV (capsules), Study 204953; geometric mean (95% CI)
measured_parameter: Cmax (ng/mL)
Just the number please, in ng/mL, no unit attached.

Requested read-out: Cmax. Entry: CC(C)C1=C2[C@H]3CC[C@@H]4[C@@]5(C)CC[C@H](OC(=O)CC(C)(C)C(=O)O)C(C)(C)[C@@H]5CC[C@@]4(C)[C@]3(C)CC[C@@]2([C@@H](O)CN(CCN(C)C)Cc2ccc(Cl)cc2)CC1=O 48.5

* * *

# test: Study 204953 Part 2: repeat dosing for 11 days with RTV QD or 200 mg BID unboosted
# Type: in vivo, human
# measurement_conditions: human, plasma, oral, 50 mg, Study day 1, 50 mg QD + RTV (PiB), Study 204953; geometric mean (95% CI)
measured_parameter: Cmax (ng/mL)
Reply numerically in ng/mL, unit not repeated.

What measured Cmax goes with CC(C)C1=C2[C@H]3CC[C@@H]4[C@@]5(C)CC[C@H](OC(=O)CC(C)(C)C(=O)O)C(C)(C)[C@@H]5CC[C@@]4(C)[C@]3(C)CC[C@@]2([C@@H](O)CN(CCN(C)C)Cc2ccc(Cl)cc2)CC1=O [GSK2838232] ? 17.1
